The reported measurements were obtained from patent US8618152B2.

# system-tested: HCV NS3-NS4A protease (tNS3 with KK4A) (Hepatitis C virus genotype 1a)
# Sequence (P27958 1027-1208): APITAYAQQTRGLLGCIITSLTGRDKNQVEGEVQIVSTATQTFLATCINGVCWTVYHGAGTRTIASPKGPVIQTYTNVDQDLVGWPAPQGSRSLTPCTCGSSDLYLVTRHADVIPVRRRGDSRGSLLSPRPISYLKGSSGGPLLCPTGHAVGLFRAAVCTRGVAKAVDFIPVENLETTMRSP
# measurement-notes: HCV Ki assay (HPLC microbore separation of 5AB substrate and products)
# Type: biochemical
# conditions: 25 nM tNS3, 25 μM KK4A, 25 μM 5AB substrate, 20 min at 30 C; read-out: Ki
*1 amine or outer side, *2 acyl side, *3 side chain or, on linkers, in order; H or OH if unused. Where a SMILES comes first, the peptide text is derived from it. [ ]: non-standard residue; d: D form. The star is where a group is joined. Pro(3S-Et) = CC[C@H]1CCN[C@@H]1C(=O)O; Pyrazinecarbonyl = O=C(c1cnccn1)*; X1 = CCCC(N[*:1])C(=O)C(=O)[*:2]; Chg = N[C@H](C(=O)O)C1CCCCC1; Tle = CC(C)(C)[C@H](N)C(=O)O

molecule	Ki
CCCC(NC(=O)[C@@H]1[C@@H](CC)CCN1C(=O)[C@@H](NC(=O)[C@@H](NC(=O)c1cnccn1)C1CCCCC1)C(C)C)C(=O)C(=O)N[C@@H](Cc1ccccc1)C(=O)O (stereo partly drawn) [Compound 26] (Pyrazinecarbonyl-[Chg]V[Pro(3S-Et)][X1]F-OH)	< 0.1 µM
CCC[C@H](NC(=O)[C@@H]1[C@@H](CC)[C@@H](C)CN1C(=O)[C@@H](NC(=O)[C@@H](NC(=O)c1cnccn1)C1CCCCC1)C(C)(C)C)C(=O)C(=O)NC1CC1	0.1 to 0.5 µM
CCCC(NC(=O)[C@@H]1[C@@H](CC)CCN1C(=O)[C@@H](NC(=O)[C@@H](NC(=O)c1cnccn1)C1CCCCC1)C(C)(C)C)C(=O)C(=O)NC1CC1 (stereo partly shown)	< 0.1 µM
CCCC(NC(=O)[C@@H]1[C@@H](CC)CCN1C(=O)[C@@H](NC(=O)[C@@H](NC(=O)c1cnccn1)C1CCCCC1)C1CCCCC1)C(=O)C(=O)N[C@@H](Cc1ccccc1)C(=O)O (stereo partly drawn) [Compound 42] (Pyrazinecarbonyl-[Chg][Chg][Pro(3S-Et)][X1]F-OH)	< 0.1 µM
C=C[C@H]1CCN(C(=O)[C@@H](NC(=O)[C@@H](NC(=O)c2cnccn2)C(C)C)C(C)C)[C@@H]1C(=O)NC(CCC)C(=O)C(=O)N[C@@H](Cc1ccccc1)C(=O)O (stereo partly shown)	0.1 to 0.5 µM
CCCC(NC(=O)[C@@H]1[C@@H](CC)CCN1C(=O)[C@@H](NC(=O)[C@@H](NC(=O)c1cnccn1)C(C)C)C(C)(C)C)C(=O)C(=O)N[C@@H](Cc1ccccc1)C(=O)O (stereo partly drawn) [Compound 31] (Pyrazinecarbonyl-V[Tle][Pro(3S-Et)][X1]F-OH)	< 0.1 µM
CC[C@H]1CCN(C(=O)[C@@H](NC(=O)[C@@H](NC(=O)c2cnccn2)C2CCCCC2)C(C)(C)C)[C@@H]1C(=O)NC(CC(F)F)C(=O)C(=O)NC1CC1 (stereo partly shown)	< 0.1 µM
CCC[C@H](NC(=O)[C@@H]1[C@@H](Cc2ccccc2)CCN1C(=O)[C@@H](NC(=O)[C@@H](NC(=O)c1cnccn1)C1CCCCC1)C(C)(C)C)C(=O)C(=O)NC1CC1	0.1 to 0.5 µM
CCCC(NC(=O)[C@@H]1[C@@H](C(C)CC)CCN1C(=O)[C@@H](NC(=O)[C@@H](NC(=O)c1cnccn1)C(C)C)C(C)C)C(=O)C(=O)N[C@@H](Cc1ccccc1)C(=O)O (stereo partly shown)	< 0.1 µM
CCCC(NC(=O)[C@@H]1[C@@H](C2CCCCC2)CCN1C(=O)[C@@H](NC(=O)[C@@H](NC(=O)c1cnccn1)C1CCCCC1)C(C)C)C(=O)C(=O)NC1CC1 (stereo partly shown)	0.1 to 0.5 µM
